- Test system: HT-29
- assay.remarks: Antiproliferative activity against human HT-29 cells assessed as growth inhibition incubated for 48 hrs by sulforhodamine B assay
- Type: functional, cell-based
- test.parameters: HT-29, 48 h
pIC50: −log10 of the molar value.
reported.metric: pIC50

Previously resolved entries follow.
INSERT INTO measurements (compound_structure_string, test_value) VALUES
  ('CCCc1ccccc1OS(=O)(=O)c1ccc(NC(=O)NCCCl)cc1', 5.72),
  ('O=C(NCCCl)Nc1ccc(S(=O)(=O)Oc2ccc(F)c(F)c2)cc1', 5.15),
  ('O=C(NCCCl)Nc1ccc(S(=O)(=O)Oc2cccc(Cl)c2)cc1', 5.55),
  ('O=C(NCCCl)Nc1ccc(S(=O)(=O)Oc2cc(F)cc(F)c2)cc1', 5.32),
  ('CC(C)(C)c1ccc(OS(=O)(=O)c2ccc(NC(=O)NCCCl)cc2)cc1', 4.82),
  ('O=C(NCCCl)Nc1ccc(S(=O)(=O)Oc2c(Cl)cc(Cl)cc2Cl)cc1', 5.82);

[I] COc1cccc(OS(=O)(=O)c2ccc(NC(=O)NCCCl)cc2)c1
[II] Cc1cccc(OS(=O)(=O)c2ccc(NC(=O)NCCCl)cc2)c1
Decide: I or II , by lowest recorded pIC50. To answer, give the label that identifies your chosen option.
II

[I] O=C(NCCCl)Nc1ccc(S(=O)(=O)Oc2ccc(F)cc2F)cc1
[II] COc1cc(OC)cc(OS(=O)(=O)c2ccc(NC(=O)NCCCl)cc2)c1
Decide: I or II , by lowest recorded pIC50. To answer, give the label that identifies your chosen option.
I

[A] O=C(NCCCl)Nc1ccc(S(=O)(=O)Oc2ccc(Br)cc2)cc1
[B] O=C(NCCCl)Nc1ccc(S(=O)(=O)Oc2cccc(Br)c2)cc1
Decide: A or B , by lowest recorded pIC50. To answer, give the label that identifies your chosen option.
A

[1] COc1ccc(OS(=O)(=O)c2ccc(NC(=O)NCCCl)cc2)cc1OC
[2] CCc1cccc(OS(=O)(=O)c2ccc(NC(=O)NCCCl)cc2)c1
[3] Cc1cccc(C)c1OS(=O)(=O)c1ccc(NC(=O)NCCCl)cc1
[4] O=C(NCCCl)Nc1ccc(S(=O)(=O)Oc2cc(Cl)cc(Cl)c2)cc1
Exam item: list the entries in increasing order of pIC50. Lab note: record answer as labels in requested order.
1, 2, 3, 4

[I] O=C(NCCCl)Nc1ccc(S(=O)(=O)Oc2ccc(F)cc2)cc1
[II] Cc1ccc(OS(=O)(=O)c2ccc(NC(=O)NCCCl)cc2)cc1
[III] CCCCOc1ccc(OS(=O)(=O)c2ccc(NC(=O)NCCCl)cc2)cc1
[IV] Cc1cc(C)cc(OS(=O)(=O)c2ccc(NC(=O)NCCCl)cc2)c1
Please rank these compounds by pIC50 in descending order. Lab note: record answer as labels in requested order.
IV, III, I, II
(IV: 5.74, III: 5.19, I: 4.92, II: 4.70)

[I] CC[C@@]1(O)C(=O)OCc2c1cc1n(c2=O)Cc2cc3c(CN(C)C)c(O)ccc3nc2-1
[II] CCCc1cccc(OS(=O)(=O)c2ccc(NC(=O)NCCCl)cc2)c1
Decide: I or II , by lowest recorded pIC50. To answer, give the label that identifies your chosen option.
II

[a] O=C(NCCCl)Nc1ccc(S(=O)(=O)Oc2cccc([N+](=O)[O-])c2)cc1
[b] O=C(NCCCl)Nc1ccc(S(=O)(=O)Oc2cccc(F)c2)cc1
[c] CCOc1cccc(OS(=O)(=O)c2ccc(NC(=O)NCCCl)cc2)c1
Exam item: list the entries in increasing order of pIC50. Lab note: record answer as labels in requested order.
a, b, c

[P] COc1ccccc1OS(=O)(=O)c1ccc(NC(=O)NCCCl)cc1
[Q] COc1cc(OS(=O)(=O)c2ccc(NC(=O)NCCCl)cc2)cc(OC)c1OC
Thinking about recorded pIC50 values, which is higher, P or Q ? To answer, give the label that identifies your chosen option.
Q
(Q: 6.30, P: 4.89)
